test: Cmax in dog at 0.6 mg/kg, po; type: ADME, organism-based, Canis lupus familiaris; set-up: dose 0.6 mg/kg, route oral; settings: in vivo
measured parameter: Cmax (nM)
Please reply with the bare figure in nM and do not write the unit itself.

[ask] Query: Cmax; subject: "Cc1nc(NC(=O)N2CCC[C@H]2C(N)=O)sc1-c1ccnc(C(C)(C)C(F)(F)F)c1"
[reply] 1070

----------
test: Volume of distribution at steady state in Sprague-Dawley rat at 1 mg/kg, iv; assay type: ADME, organism-based; design: dose 1 mg/kg, route intravenous; conditions: in vivo, read-out: Vdss
measured parameter: Vd
Express the reported value numerically, then name its unit.

Cc1nc(NC(=O)N2CCC[C@H]2C(N)=O)sc1-c1ccnc(C2(C)CC2)n1: 0.9 L/kg

[ask] Query: Vd; subject: "Cc1nc(NC(=O)N2CCC[C@H]2C(N)=O)sc1-c1ccnc(C(C)(C)C)n1"
[reply] 1.2 L/kg

[ask] Query: Vd; subject: Cc1nc(NC(=O)N2CCC[C@H]2C(N)=O)sc1-c1ccnc(C(C)(C)C(F)(F)F)c1 [ALPELISIB]
[reply] 1.9 L/kg

[ask] Query: Vd; subject: "Cc1nc(NC(=O)N2CCC[C@H]2C(N)=O)sc1-c1ccnc(C(C)(C)C)c1"
[reply] 1.4 L/kg

----------
molecular target: Phosphatidylinositol 4,5-bisphosphate 3-kinase catalytic subunit alpha isoform (Homo sapiens, UniProt P42336); assay: Inhibition of P110alpha (unknown origin) using L-a-phosphatidylinositol as substrate by luminescence assay
Sequence (P42336 whole entry, canonical isoform): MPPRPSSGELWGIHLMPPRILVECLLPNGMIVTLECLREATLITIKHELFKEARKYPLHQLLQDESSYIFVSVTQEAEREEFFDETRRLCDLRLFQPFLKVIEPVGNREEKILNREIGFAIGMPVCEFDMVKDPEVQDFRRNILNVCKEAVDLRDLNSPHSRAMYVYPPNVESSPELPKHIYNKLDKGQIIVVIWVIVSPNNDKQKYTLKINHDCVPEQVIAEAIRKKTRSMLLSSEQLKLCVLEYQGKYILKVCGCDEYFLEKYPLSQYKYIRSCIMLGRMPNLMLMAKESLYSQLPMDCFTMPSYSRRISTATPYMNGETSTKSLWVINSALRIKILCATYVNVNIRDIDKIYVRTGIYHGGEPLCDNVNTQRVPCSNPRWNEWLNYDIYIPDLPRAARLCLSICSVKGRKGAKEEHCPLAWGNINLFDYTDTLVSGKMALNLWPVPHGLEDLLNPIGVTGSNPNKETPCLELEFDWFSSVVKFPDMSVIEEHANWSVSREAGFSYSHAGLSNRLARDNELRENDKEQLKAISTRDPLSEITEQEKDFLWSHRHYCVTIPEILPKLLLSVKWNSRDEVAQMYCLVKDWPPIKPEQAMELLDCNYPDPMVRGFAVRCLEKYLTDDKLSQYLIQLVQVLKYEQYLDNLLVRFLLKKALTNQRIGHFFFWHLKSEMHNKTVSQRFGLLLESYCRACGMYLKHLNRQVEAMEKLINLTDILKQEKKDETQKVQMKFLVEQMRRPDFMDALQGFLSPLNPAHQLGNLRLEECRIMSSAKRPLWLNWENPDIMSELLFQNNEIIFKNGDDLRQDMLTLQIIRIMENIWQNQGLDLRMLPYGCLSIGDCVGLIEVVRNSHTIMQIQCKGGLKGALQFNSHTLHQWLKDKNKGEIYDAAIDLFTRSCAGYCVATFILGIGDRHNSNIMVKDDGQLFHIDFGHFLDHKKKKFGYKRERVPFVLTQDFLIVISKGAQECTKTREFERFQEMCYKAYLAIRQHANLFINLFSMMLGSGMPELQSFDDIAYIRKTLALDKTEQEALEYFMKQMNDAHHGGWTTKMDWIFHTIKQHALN
measured parameter: log10 of IC50 (log10 of the value in nM)
Transform log10 | Measure IC50 | Unit nM

CNC(=O)[C@@H]1CCCN1C(=O)Nc1nc(C)c(-c2ccnc(C(C)(C)C)c2)s1: 3.43
Cc1nc(NC(=O)N2CC[C@H]2C(N)=O)sc1-c1ccnc(C(C)(C)C)n1: 1.28
Cc1nc(NC(=O)N2CCC[C@H]2C(N)=O)sc1-c1ccnc(C(C)C)n1: 1.20
Cc1nc(NC(=O)N2CCCC2)sc1-c1ccnc(C(C)(C)C)c1: 2.79
Cc1nc(NC(=O)N2CCC[C@H]2C(N)=O)sc1-c1cc(C(C)C)ncn1: 2.51

[ask] Query: log10 of IC50; subject: "CC(C)(c1cc(-c2cnc(NC(=O)N3CCC[C@H]3C(N)=O)s2)ccn1)C(F)(F)F"
[reply] 0.98

[ask] Query: log10 of IC50; subject: "Cc1nc(NC(=O)N2CCC[C@H]2C(N)=O)sc1-c1ccnc(C2CCC2)n1"
[reply] 1.30

----------
biological target: Serine/threonine-protein kinase mTOR (Homo sapiens, UniProt P42345)
measured parameter: IC50

[ask] What IC50 appears in the records for this compound with Serine/threonine-protein kinase mTOR (Homo sapiens, UniProt P42345)? Cc1nc(NC(=O)N2CCC[C@H]2C(N)=O)sc1-c1ccnc(C(C)(C)C(F)(F)F)c1 [ALPELISIB]
[reply] > 9.1 µM

----------
assay: Cmax in mouse at 3 mg/kg, po; assay type: ADME, organism-based; design: dose 3 mg/kg, route oral; conditions: in vivo
measured parameter: Cmax (nM)
Please reply with the bare figure in nM and do not write the unit itself.

[ask] Query: Cmax; subject: "Cc1nc(NC(=O)N2CCC[C@H]2C(N)=O)sc1-c1ccnc(C(C)(C)C(F)(F)F)c1"
[reply] 520

----------
molecular target: Phosphatidylinositol 4,5-bisphosphate 3-kinase catalytic subunit beta isoform (Homo sapiens); assay: Inhibition of P110beta (unknown origin) using L-a-phosphatidylinositol as substrate by luminescence assay
Sequence (P42338 whole entry, canonical isoform): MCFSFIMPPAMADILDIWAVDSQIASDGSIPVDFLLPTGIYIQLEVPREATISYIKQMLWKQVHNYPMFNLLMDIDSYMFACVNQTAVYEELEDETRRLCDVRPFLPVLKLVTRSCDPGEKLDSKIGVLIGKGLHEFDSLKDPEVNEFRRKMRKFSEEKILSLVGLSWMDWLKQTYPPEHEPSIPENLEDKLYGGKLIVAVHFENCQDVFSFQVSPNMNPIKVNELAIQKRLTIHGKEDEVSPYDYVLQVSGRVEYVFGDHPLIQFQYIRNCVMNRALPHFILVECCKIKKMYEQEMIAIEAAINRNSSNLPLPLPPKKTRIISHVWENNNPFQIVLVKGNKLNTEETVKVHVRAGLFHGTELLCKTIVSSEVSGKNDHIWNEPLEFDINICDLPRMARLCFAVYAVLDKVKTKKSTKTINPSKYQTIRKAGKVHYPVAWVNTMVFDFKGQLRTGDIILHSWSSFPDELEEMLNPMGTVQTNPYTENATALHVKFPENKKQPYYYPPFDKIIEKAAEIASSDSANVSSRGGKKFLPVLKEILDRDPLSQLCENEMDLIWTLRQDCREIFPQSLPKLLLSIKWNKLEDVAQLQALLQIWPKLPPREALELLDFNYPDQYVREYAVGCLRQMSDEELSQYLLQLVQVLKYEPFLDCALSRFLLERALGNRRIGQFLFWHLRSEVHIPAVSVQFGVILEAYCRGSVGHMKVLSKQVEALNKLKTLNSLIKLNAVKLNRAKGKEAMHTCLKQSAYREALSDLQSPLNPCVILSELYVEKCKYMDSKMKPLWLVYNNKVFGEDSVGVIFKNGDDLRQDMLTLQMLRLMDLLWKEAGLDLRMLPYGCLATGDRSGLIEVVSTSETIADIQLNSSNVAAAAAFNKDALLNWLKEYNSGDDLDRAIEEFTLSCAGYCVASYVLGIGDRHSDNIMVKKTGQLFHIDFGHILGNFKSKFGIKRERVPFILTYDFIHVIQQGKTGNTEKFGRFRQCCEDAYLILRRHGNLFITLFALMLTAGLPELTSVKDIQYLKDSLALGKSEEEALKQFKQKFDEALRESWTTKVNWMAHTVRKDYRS
// values below are reported pIC50
As a rule, pIC50 stands for the negative log10 of the concentration, concentration in M.

Below, each entry is followed by its recorded pIC50 result.
Cc1nc(NC(=O)N2CCC[C@@H]2C(N)=O)sc1-c1ccnc(C(C)(C)C)c1: 5.09
Cc1nc(NC(=O)N2CCC[C@H]2C(N)=O)sc1-c1ccnc(C(C)C)n1: 5.40
Cc1nc(NC(=O)N2CC[C@H]2C(N)=O)sc1-c1ccnc(C(C)(C)C)n1: 5.92
Cc1nc(NC(=O)N2CCCC2)sc1-c1ccnc(C(C)(C)C)c1: 5.31
Cc1nc(NC(=O)N2CCC[C@H]2C(N)=O)sc1-c1ccnc(C2(C)CC2)n1: 5.51

Next compound, please.
[ask] Query: pIC50; subject: "Cc1nc(NC(=O)N2CCC[C@H]2C(N)=O)sc1-c1ccnc(C2CCC2)n1"
[reply] 5.74

----------
// values below are reported microsomal CLint
assay: Clearance in rat liver microsomes in presence of cofactor for glucuronyl transferases; type: ADME, Microsome; conditions: read-out: CLH
Please reply with the bare figure in µL/min/mg and do not write the unit itself.

Below, each entry is followed by its recorded microsomal CLint result.
Cc1nc(NC(=O)N2CCC[C@H]2C(N)=O)sc1-c1ccnc(C(C)(C)C)n1: 62
Cc1nc(NC(=O)N2CCCC2)sc1-c1ccnc(C(C)(C)C)c1: 186
CNC(=O)[C@@H]1CCCN1C(=O)Nc1nc(C)c(-c2ccnc(C(C)(C)C)c2)s1: 104
Cc1nc(NC(=O)N2CCC[C@@H]2C(N)=O)sc1-c1ccnc(C(C)(C)C)c1: 36

[ask] Query: microsomal CLint; subject: "Cc1nc(NC(=O)N2CCC[C@H]2C(N)=O)sc1-c1ccnc(C(C)(C)C)c1"
[reply] 77

----------
target: Phosphatidylinositol 3-kinase catalytic subunit type 3 (Homo sapiens, UniProt Q8NEB9); assay: Inhibition of VPS34 (unknown origin)
Sequence (Q8NEB9 whole entry): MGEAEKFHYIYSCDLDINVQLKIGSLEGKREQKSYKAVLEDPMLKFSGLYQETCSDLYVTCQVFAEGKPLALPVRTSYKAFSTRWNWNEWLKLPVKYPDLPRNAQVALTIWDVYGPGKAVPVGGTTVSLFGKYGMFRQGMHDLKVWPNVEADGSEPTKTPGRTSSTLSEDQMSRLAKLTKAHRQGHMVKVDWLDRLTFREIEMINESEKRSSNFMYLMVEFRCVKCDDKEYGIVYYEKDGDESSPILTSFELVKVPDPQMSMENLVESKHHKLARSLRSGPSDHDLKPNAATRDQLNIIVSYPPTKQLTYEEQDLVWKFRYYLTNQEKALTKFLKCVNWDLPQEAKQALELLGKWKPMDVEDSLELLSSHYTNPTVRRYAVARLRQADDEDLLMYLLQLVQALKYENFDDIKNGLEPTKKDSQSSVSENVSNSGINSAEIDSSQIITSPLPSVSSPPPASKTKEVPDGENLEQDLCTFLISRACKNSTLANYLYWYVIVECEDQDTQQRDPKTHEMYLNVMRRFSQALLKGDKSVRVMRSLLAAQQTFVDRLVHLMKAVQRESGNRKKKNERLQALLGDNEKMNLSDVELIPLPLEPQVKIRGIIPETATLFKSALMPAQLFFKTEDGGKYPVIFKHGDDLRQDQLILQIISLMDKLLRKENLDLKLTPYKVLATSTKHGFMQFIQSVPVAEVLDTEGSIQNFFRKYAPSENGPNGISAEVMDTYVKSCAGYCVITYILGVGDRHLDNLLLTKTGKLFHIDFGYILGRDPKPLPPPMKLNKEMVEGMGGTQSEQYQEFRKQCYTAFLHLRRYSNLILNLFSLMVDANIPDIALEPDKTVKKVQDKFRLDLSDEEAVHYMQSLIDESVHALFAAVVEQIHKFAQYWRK
measured parameter: IC50

[ask] What IC50 appears in the records for this molecule with Phosphatidylinositol 3-kinase catalytic subunit type 3 (Homo sapiens, UniProt Q8NEB9)? "Cc1nc(NC(=O)N2CCC[C@H]2C(N)=O)sc1-c1ccnc(C(C)(C)C(F)(F)F)c1"
[reply] > 9.1 µM

----------
assay: Clearance in rat liver microsomes; type: ADME, Microsome; conditions: read-out: CLH
// values below are reported microsomal CLint
Please reply with the bare figure in µL/min/mg and do not write the unit itself.

Below, each entry is followed by its recorded microsomal CLint result.
Cc1nc(NC(=O)N2CC[C@H]2C(N)=O)sc1-c1ccnc(C(C)(C)C)n1: 44
Cc1nc(NC(=O)N2CCC[C@H]2C(N)=O)sc1-c1ccnc(C2CCC2)n1: 53
Cc1nc(NC(=O)N2CCC[C@H]2C(N)=O)sc1-c1ccnc(C2(C#N)CC2)c1: 41

[ask] Query: microsomal CLint; subject: "Cc1nc(NC(=O)N2CCC[C@H]2C(N)=O)sc1-c1ccnc(C(C)C)n1"
[reply] 36

[ask] Query: microsomal CLint; subject: "CCN(CC)c1nccc(-c2sc(NC(=O)N3CCC[C@H]3C(N)=O)nc2C)n1"
[reply] 96

[ask] Query: microsomal CLint; subject: "Cc1nc(NC(=O)N2CCC[C@H]2C(N)=O)sc1-c1ccnc(C2(C)CC2)n1"
[reply] 47

[ask] Query: microsomal CLint; subject: "CC(C)(c1cc(-c2cnc(NC(=O)N3CCC[C@H]3C(N)=O)s2)ccn1)C(F)(F)F"
[reply] 27

[ask] Query: microsomal CLint; subject: "CC(C)(c1cc(-c2sc(NC(=O)N3CCC[C@H]3C(N)=O)nc2Cl)ccn1)C(F)(F)F"
[reply] 17

----------
assay: Clearance in rat at 3.4 mg/kg, iv and 15 mg/kg, po; assay type: ADME, organism-based; settings: in vivo
measured parameter: clearance (mL/min/kg)
Please reply with the bare figure in mL/min/kg and do not write the unit itself.

[ask] Query: clearance; subject: "Cc1nc(NC(=O)N2CCC[C@H]2C(N)=O)sc1-c1ccnc(C(C)(C)C(F)(F)F)c1"
[reply] 10

----------
biological target: Phosphatidylinositol 4,5-bisphosphate 3-kinase catalytic subunit delta isoform (Homo sapiens); assay: Inhibition of P110delta (unknown origin) using PIP2:PS as substrate by TR-FRET assay
The threshold is 0.8 µM. Values of IC50 beneath it are tagged t; values meeting or exceeding it are tagged f.

Please review the entries below; each comes with its answer.
Cc1nc(NC(=O)N2CCC[C@H]2C(N)=O)sc1-c1ccnc(C(C)(C)C)c1: t
Cc1nc(NC(=O)N2CCC[C@@H]2C(N)=O)sc1-c1ccnc(C(C)(C)C)c1: f
CNC(=O)[C@@H]1CCCN1C(=O)Nc1nc(C)c(-c2ccnc(C(C)(C)C)c2)s1: f

[ask] hey, is IC50 for "Cc1nc(NC(=O)N2CC[C@H]2C(N)=O)sc1-c1ccnc(C(C)(C)C)n1" lower than 0.8 µM or not?
[reply] t

----------
Target: Phosphatidylinositol 4,5-bisphosphate 3-kinase catalytic subunit delta isoform (Homo sapiens, UniProt O00329)
Sequence (O00329 whole entry): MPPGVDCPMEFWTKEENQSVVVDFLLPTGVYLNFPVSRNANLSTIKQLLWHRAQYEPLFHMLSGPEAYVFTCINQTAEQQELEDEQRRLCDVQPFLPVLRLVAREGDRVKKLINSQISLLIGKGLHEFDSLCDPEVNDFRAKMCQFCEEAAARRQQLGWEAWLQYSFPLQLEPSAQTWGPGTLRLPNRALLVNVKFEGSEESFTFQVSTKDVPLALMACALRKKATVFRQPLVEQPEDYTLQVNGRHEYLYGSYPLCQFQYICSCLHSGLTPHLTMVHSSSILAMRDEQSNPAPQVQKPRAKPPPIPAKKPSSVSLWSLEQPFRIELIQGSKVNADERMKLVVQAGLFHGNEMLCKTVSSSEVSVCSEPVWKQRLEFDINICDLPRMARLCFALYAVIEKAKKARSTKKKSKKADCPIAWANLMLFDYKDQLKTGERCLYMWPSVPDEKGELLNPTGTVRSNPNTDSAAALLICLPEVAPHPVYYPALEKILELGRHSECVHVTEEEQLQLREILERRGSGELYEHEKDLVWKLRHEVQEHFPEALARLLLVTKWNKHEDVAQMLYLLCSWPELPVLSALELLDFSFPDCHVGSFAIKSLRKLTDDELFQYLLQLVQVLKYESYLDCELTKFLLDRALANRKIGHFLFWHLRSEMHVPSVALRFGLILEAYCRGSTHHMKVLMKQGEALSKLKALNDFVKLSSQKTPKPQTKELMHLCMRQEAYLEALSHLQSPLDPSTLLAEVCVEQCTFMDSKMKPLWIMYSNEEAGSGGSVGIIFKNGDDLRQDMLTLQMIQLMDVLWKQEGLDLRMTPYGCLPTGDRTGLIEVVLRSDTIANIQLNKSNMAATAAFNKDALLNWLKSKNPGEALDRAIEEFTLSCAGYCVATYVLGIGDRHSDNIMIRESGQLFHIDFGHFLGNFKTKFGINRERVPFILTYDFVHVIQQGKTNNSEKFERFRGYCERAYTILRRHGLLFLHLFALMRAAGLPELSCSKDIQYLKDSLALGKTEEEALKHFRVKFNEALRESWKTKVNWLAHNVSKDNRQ
Test: Inhibition of N-terminal myristoylated P110delta (unknown origin)-mediated AKT phosphorylation at Ser473 expressed in rat Rat1 cells by ELISA
Format: cell-based
measured parameter: IC50

[ask] Query: IC50; subject: "Cc1nc(NC(=O)N2CCC[C@H]2C(N)=O)sc1-c1ccnc(C2(C)CC2)n1"
[reply] 3 µM

[ask] Query: IC50; subject: "CC(C)(c1cc(-c2sc(NC(=O)N3CCC[C@H]3C(N)=O)nc2Cl)ccn1)C(F)(F)F"
[reply] 4.9 µM

[ask] Query: IC50; subject: "CCN(CC)c1nccc(-c2sc(NC(=O)N3CCC[C@H]3C(N)=O)nc2C)n1"
[reply] 2.5 µM
